Origin of the recorded values: PubChem BioAssay (EPA / NIEHS)

# targetUnderTest: X-box-binding protein 1 (Homo sapiens) (UniProt P17861)
# Sequence (P17861 whole entry, looked up): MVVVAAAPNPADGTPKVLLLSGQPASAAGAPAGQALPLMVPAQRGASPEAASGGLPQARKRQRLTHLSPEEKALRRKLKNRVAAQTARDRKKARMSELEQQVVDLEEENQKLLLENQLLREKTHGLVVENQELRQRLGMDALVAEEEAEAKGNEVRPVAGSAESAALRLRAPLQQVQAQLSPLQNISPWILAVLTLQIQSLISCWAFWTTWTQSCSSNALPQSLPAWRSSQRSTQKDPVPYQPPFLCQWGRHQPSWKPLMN
# testName: ATG_Xbp1_CIS: Attagene CIS-FACTORIAL HepG2 Assay for human X-box Binding Protein 1 (XBP1) (AID 2282972)
# testParameters: HepG2 XBP1 cis-element reporter, Attagene multiplex; actives raise or lower the signal
The source made the active and inactive calls. How the source made its calls: active means hit-call score of the fitted dose curve at least 0.9, where 1 is the maximum; inactive means score below 0.9.
Parameter call: string, one of y for active, n for inactive

Req: Answer briefly: the call reported for `Cc1cc(C)c(C)cc1C` in this assay.
Resp: n

Req: Answer briefly: the call reported for `Nc1cccc(C(F)(F)F)c1` in this assay.
Resp: n

Req: Answer briefly: the call reported for `CCCOC(=O)CCCCC(=O)OCCC` in this assay.
Resp: n

Req: Answer briefly: the call reported for `O=S(=O)(Oc1ccc(Cl)cc1Cl)c1ccccc1` in this assay.
Resp: n

Req: Answer briefly: the call reported for `Oc1ccc(Cl)cc1Cc1cc(Cl)ccc1O` in this assay.
Resp: y

Req: Answer briefly: the call reported for `Cc1c(C)c([N+](=O)[O-])c(C(C)(C)C)c([N+](=O)[O-])c1C` in this assay.
Resp: n

Req: Answer briefly: the call reported for `N#[N+]c1ccc2c(S(=O)(=O)[O-])cccc2c1O` in this assay.
Resp: n

Req: Answer briefly: the call reported for CC(C)=CCCC(C)C=O (configuration not stated) in this assay.
Resp: n

Req: Answer briefly: the call reported for `CC(C)c1ccc2c(C(C)C)cc(C(C)C)c(S(=O)(=O)O)c2c1` in this assay.
Resp: n

Req: Answer briefly: the call reported for `C[Si](C)O[Si](C)(C)O[Si](C)(C)O[Si](C)C` in this assay.
Resp: n

Req: Answer briefly: the call reported for `O=c1cc[nH]c(=S)[nH]1` in this assay.
Resp: n

Req: Answer briefly: the call reported for `COC(=O)c1c(C)cc(O)c(C)c1O` in this assay.
Resp: n

Req: Answer briefly: the call reported for `COc1cc(C)ccc1C(C)C` in this assay.
Resp: n

Req: Answer briefly: the call reported for Cc1ccc(C2OC[C@@H]3OC(c4ccc(C)cc4)O[C@H]([C@H](O)CO)[C@@H]3O2)cc1 (some centres not stated) in this assay.
Resp: n

Req: Answer briefly: the call reported for `CC(=O)OC(C)C` in this assay.
Resp: n

Req: Answer briefly: the call reported for `O=c1cc(-c2ccccc2)oc2ccccc12` in this assay.
Resp: y

Req: Answer briefly: the call reported for `C=CCOc1c(Br)cc(Br)cc1Br` in this assay.
Resp: n

Req: Answer briefly: the call reported for `O=Cc1ccc(CO)o1` in this assay.
Resp: n

Req: Answer briefly: the call reported for `S=C(NC1CCCCC1)NC1CCCCC1` in this assay.
Resp: n

Req: Answer briefly: the call reported for `CC(=O)[C@@]1(O)CC[C@H]2[C@@H]3C[C@H](C)C4=CC(=O)C=C[C@]4(C)[C@@]3(F)[C@@H](O)C[C@@]21C` in this assay.
Resp: n

Req: Answer briefly: the call reported for C=CC(C)(CCC=C(C)C)OC(=O)CC(C)C (configuration not stated) in this assay.
Resp: n

Req: Answer briefly: the call reported for CC(C)=CC1CC(C)CCO1 (configuration not stated) in this assay.
Resp: n

Req: Answer briefly: the call reported for `c1ccc(CCCc2ccncc2)cc1` in this assay.
Resp: n

Req: Answer briefly: the call reported for `COC(=O)/C=C/C(C)=C\C=C\C(C)=C\C=C\C=C(C)\C=C\C=C(C)\C=C\C(=O)O` in this assay.
Resp: n

Req: Answer briefly: the call reported for `CC(C)c1ccc2c(c1)CC[C@H]1[C@](C)(CN)CCC[C@]21C` in this assay.
Resp: y

Req: Answer briefly: the call reported for `CN(C)c1ccc(N=Nc2ccccc2C(=O)O)cc1` in this assay.
Resp: y

Req: Answer briefly: the call reported for CC(C)(C)C1CCCCC1=O (configuration not stated) in this assay.
Resp: n
